- System: Zebrafish wild-type (WT) embryos
- Test Name: Absorption (internal concentration) of cephalosporins in zebrafish embryos by LC-MS/MS
- Experimental Parameters: zebrafish embryos exposed to 1 mM drug solution, 6 hpf-3 dpf
Endpoint Name: Internal concentration
# output: numeric value plus its unit

Some compounds with known Internal concentration results, for comparison:
Smi	Internal concentration
CO[C@@]1(NC(=O)CSC(F)F)C(=O)N2C(C(=O)O)=C(CSc3nnnn3CCO)CO[C@@H]21	8.30 mM × 10^-5
N[C@@H](C(=O)N[C@@H]1C(=O)N2C(C(=O)O)=C(Cl)CS[C@H]12)c1ccccc1	3.43 mM × 10^-5
CO/N=C(\C(=O)N[C@@H]1C(=O)N2C(C(=O)O)=C(COC(C)=O)CS[C@H]12)c1csc(N)n1	0.75 mM × 10^-5
CO/N=C(\C(=O)N[C@@H]1C(=O)N2C(C(=O)O)=C(COC(N)=O)CS[C@H]12)c1ccco1	1.55 mM × 10^-5
CCN1CCN(C(=O)N[C@@H](C(=O)N[C@@H]2C(=O)N3C(C(=O)O)=C(CSc4nnnn4C)CS[C@H]23)c2ccc(O)cc2)C(=O)C1=O	5.75 mM × 10^-5
CC1=C(C(=O)O)N2C(=O)[C@@H](NC(=O)[C@H](N)c3ccc(O)cc3)[C@H]2SC1	7.07 mM × 10^-5

Next up:
Quick check: Internal concentration of "CO/N=C(\C(=O)N[C@@H]1C(=O)N2C(C(=O)O)=CCS[C@H]12)c1csc(N)n1" ?
3.70 mM × 10^-5
